Collected literature values of Ki measured for Adenosine receptor A3 (Mus musculus).
Molecular target: Adenosine receptor A3 (Mus musculus)
Sequence (Q61618 whole entry): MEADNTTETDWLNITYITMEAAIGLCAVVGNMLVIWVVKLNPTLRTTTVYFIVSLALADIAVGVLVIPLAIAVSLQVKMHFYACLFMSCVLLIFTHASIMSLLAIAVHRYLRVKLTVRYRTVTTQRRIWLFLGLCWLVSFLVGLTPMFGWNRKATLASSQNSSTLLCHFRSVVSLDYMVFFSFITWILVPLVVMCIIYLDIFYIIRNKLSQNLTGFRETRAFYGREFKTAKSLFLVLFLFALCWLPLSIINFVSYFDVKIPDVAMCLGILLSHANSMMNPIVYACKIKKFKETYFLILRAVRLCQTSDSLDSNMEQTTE
experimental endpoint: Ki (nM)

Below are worked cases with known answers.
{"entry smiles": "CCOC(=O)[C@@]12C[C@@H]1[C@@H](n1cnc3c(NC)nc(C#Cc4ccc(F)s4)nc31)[C@H](O)[C@@H]2O", "reading unit": "nM", "Ki": 625}
{"entry smiles": "CNC(=O)[C@@]12C[C@@H]1[C@@H](n1cnc3c(NCCc4ccc(O)c(OC)c4)nc(C#Cc4ccco4)nc31)[C@H](O)[C@@H]2O", "reading unit": "nM", "Ki": 1.56}

(A) CNC(=O)[C@@]12C[C@@H]1[C@@H](n1cnc3c(NCCc4ccc(OC)c(OC)c4)nc(I)nc31)[C@H](O)[C@@H]2O
(B) CNC(=O)[C@@]12C[C@@H]1[C@@H](n1cnc3c(NCCc4ccc(O)c(OC)c4)nc(C#Cc4ccc(F)s4)nc31)[C@H](O)[C@@H]2O
(C) CNC(=O)[C@@]12C[C@@H]1[C@@H](n1cnc3c(NCCc4ccc(O)c(OC)c4)nc(C#Cc4ccc(F)c(F)c4)nc31)[C@H](O)[C@@H]2O
(D) CCCNc1nc(C#Cc2ccc(Cl)s2)nc2c1ncn2[C@@H]1O[C@H](C(=O)NC)[C@@H](O)[C@H]1O
(E) CNC(=O)[C@@]12C[C@@H]1[C@@H](n1cnc3c(NCCc4ccc(OC)c(O)c4)nc(OCC(C)C)nc31)[C@H](O)[C@@H]2O
Ask | Arrange these 5 compounds in increasing order of Ki. # list labels per requested ordering
Reply | B, C, A, E, D
(B: 1.46 nM, C: 3.31 nM, A: 5.31 nM, E: 17.6 nM, D: 597 nM)

###

Collected literature values of Ki measured for Adenosine receptor A3 (Mus musculus, UniProt Q61618).
Target: Adenosine receptor A3 (Mus musculus, UniProt Q61618)
Sequence (Q61618 whole entry): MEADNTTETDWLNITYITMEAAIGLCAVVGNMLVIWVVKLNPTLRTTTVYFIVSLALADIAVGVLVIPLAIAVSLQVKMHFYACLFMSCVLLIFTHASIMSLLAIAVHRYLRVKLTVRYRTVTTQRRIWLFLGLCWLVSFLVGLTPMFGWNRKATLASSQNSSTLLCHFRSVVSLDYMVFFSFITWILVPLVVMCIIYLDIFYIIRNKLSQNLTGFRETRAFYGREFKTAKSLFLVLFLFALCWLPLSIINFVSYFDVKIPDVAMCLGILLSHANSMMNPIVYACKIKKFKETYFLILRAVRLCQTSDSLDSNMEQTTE
experimental endpoint: Ki (nM)

{"entry smiles": "CNC(=O)[C@@]12C[C@@H]1[C@@H](n1cnc3c(NC)cc(C#Cc4ccc(Cl)s4)nc31)[C@H](O)[C@@H]2O", "target of assay": "Adenosine receptor A3 (Mus musculus, UniProt Q61618)", "value reported": 31}

(P) CNC(=O)[C@@]12C[C@@H]1[C@@H](n1cnc3cnc(C#Cc4ccc(Cl)s4)nc31)[C@H](O)[C@@H]2O
(Q) CNC(=O)[C@@]12C[C@@H]1[C@@H](n1cnc3c(NC)nc(C#Cc4ccc(F)s4)nc31)[C@H](O)[C@@H]2O
(R) CCNc1nc(C#Cc2ccc(Cl)s2)nc2c1ncn2[C@H]1[C@H](O)[C@H](O)[C@]2(C(=O)NC)C[C@H]12
(S) CNC(=O)[C@@]12C[C@@H]1[C@@H](n1cnc3c(NCCc4ccc(O)c(OC)c4)nc(I)nc31)[C@H](O)[C@@H]2O
Ask | Arrange the 4 molecules from largest to smallest Ki. # list labels per requested ordering
Reply | P, Q, R, S
(P: 396 nM, Q: 85 nM, R: 27 nM, S: 2.25 nM)

###

Collected literature values of Ki measured for Adenosine receptor A3 (Mus musculus).
experimental endpoint: Ki (nM)

Below are worked cases with known answers.
{"entry smiles": "CNC(=O)[C@@]12C[C@@H]1[C@@H](n1cnc3c(NCCc4ccc(OC)c(OC)c4)nc(C#Cc4ccc(Cl)s4)nc31)[C@H](O)[C@@H]2O", "target of assay": "Adenosine receptor A3 (Mus musculus)", "experimental endpoint": "Ki", "value reported": 2.21}
{"entry smiles": "CNC(=O)[C@@]12C[C@@H]1[C@@H](n1cnc3c(C)nc(C#Cc4ccc(Cl)s4)nc31)[C@H](O)[C@@H]2O", "target of assay": "Adenosine receptor A3 (Mus musculus)", "experimental endpoint": "Ki", "value reported": 722}

(P) O[C@@H]1[C@H](O)[C@@H]2C[C@@H]2[C@H]1n1cnc2c(NC(C3CCC3)C3CCC3)nc(Cl)nc21
(Q) CCCNc1nc(C#Cc2ccc(F)s2)nc2c1ncn2[C@H]1[C@H](O)[C@H](O)[C@]2(C(=O)NC)C[C@H]12
Ask | Would you mind telling me which has the lower recorded Ki between P and Q ? Give the label of your selection.
Reply | Q
